Target: T1, 4H1454-AA
T1 chain: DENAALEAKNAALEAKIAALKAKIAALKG
Assay: two-hybrid library CCmax;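 note: natural log of median RNA to DNA barcode read ratio; higher means stronger binding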
Conditions: mean of both orientations
value_kind: interaction score
// no unit string in output, number only

[[record]]
binder = "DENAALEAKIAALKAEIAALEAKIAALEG [4H1349-AA]"
value_kind = "interaction score"
endpoint_result = -0.224

[[record]]
binder = "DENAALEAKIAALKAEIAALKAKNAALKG [4H1360-AA]"
value_kind = "interaction score"
endpoint_result = -1.08

[[record]]
binder = "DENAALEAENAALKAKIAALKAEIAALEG [4H1257-AA]"
value_kind = "interaction score"
endpoint_result = -0.555

[[record]]
binder = "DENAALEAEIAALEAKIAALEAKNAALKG [4H1064-AA]"
value_kind = "interaction score"
endpoint_result = 0.729


Query binder follows.
Task item: Form field: reported interaction score of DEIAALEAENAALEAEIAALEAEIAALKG [4H130-AA]
Reply: 1.52
